Hey, just so you know, these numbers are from patent US20210196796A1.

- TEST TARGET: T1, orthogonal hCD122 receptor (hoRb), hCD122 with H133D and Y134F (human, UniProt P14784 27-550); further: reference of the scale not given here
- T1 sequence: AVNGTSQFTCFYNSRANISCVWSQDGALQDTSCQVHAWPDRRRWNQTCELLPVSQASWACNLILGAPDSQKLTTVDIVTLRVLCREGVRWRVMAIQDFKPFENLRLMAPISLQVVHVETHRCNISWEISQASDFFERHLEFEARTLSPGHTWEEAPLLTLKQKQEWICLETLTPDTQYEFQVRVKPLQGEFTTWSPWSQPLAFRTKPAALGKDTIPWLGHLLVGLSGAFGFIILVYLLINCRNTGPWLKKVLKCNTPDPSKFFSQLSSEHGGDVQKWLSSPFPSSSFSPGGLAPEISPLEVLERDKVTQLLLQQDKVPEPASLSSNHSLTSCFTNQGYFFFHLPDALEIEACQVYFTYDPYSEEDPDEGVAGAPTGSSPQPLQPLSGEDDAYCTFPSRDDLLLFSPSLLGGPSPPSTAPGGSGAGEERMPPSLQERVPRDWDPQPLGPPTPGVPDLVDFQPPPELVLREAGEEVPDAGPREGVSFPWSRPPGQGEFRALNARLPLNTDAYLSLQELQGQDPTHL
- ASSAY REMARKS: cell-based or functional assay
Recorded Relative Proliferation Fold Change NKL 1:50, one value per entry.
Numbers only; they are read as fold.

Some entries whose results are on file:
* SNVLKA (ligand) APTSSSTKKTQLQLSNLLVLLKAILNGINNYKNPKLTRMLTFKFYMPKKATELKHLQCLEEELKPLEEVLNLAQSKNFHLRPRDLISNINVIVLELKGSETTFMCEYADETATIVEFLNRWITFCQSIISTLT | 1.09
* T3P, SQVLKA (ligand) APPSSSTKKTQLQLSQLLVLLKAILNGINNYKNPKLTRMLTFKFYMPKKATELKHLQCLEEELKPLEEVLNLAQSKNFHLRPRDLISNINVIVLELKGSETTFMCEYADETATIVEFLNRWITFCQSIISTLT | 2.9
* Q126K, SQVLKA (ligand) APTSSSTKKTQLQLSQLLVLLKAILNGINNYKNPKLTRMLTFKFYMPKKATELKHLQCLEEELKPLEEVLNLAQSKNFHLRPRDLISNINVIVLELKGSETTFMCEYADETATIVEFLNRWITFCKSIISTLT | 0.53

From here, focus on the item given below.
Incoming: Any idea what Relative Proliferation Fold Change NKL 1:50 was measured for L80V, SQVLKA (ligand) APTSSSTKKTQLQLSQLLVLLKAILNGINNYKNPKLTRMLTFKFYMPKKATELKHLQCLEEELKPLEEVLNLAQSKNFHVRPRDLISNINVIVLELKGSETTFMCEYADETATIVEFLNRWITFCQSIISTLT ?
Outgoing: 1.58
